# credit: paper PMC11611271

# System: VEGF_(8-109) (UniProt P15692)
# Assay summary: SPR; Biacore S200, target on Series S Sensor Chip SA, peptide flowed, single-cycle kinetics, three-fold dilution series from approximately 100 μM, 25°C, 30 μl/min, HBS-EP with 5% DMSO; 1:1 binding (kinetic) model
Quick list: Kd per entry.
Parameter measured: Kd (µM)

INSERT INTO measurements (binder, unit_abbreviation, experimental_value) VALUES
  ('PCECDVNVETYTVSSSEECKRLCWGFGQSDCRVHCG [5ji4-VEGF-3]', 'µM', 0.12),
  ('PCECFMYDILVGLASSEECERLCRKLGVTNCRVHCG [5ji4-VEGF-2]', 'µM', 6.8);
